Reported property: melting point (°C)

{"columns": ["Structure string", "Reading"],
 "data": [
  ["CCCCOC(=O)Cc1cc(-c2ccc(S(C)(=O)=O)cc2)n(-c2ccc(F)c(F)c2)c1C", 112],
  ["Cc1c(CC(=O)OC(C)C)cc(-c2ccc(S(C)(=O)=O)cc2)n1-c1ccccc1", 160]
]}

* * *

Biological target: COX-2 (Mus musculus, UniProt Q05769)
Construct: lipopolysaccharide (LPS, 10 μg/mL) to induce COX-2; endogenous in cells; host or cells: J774 murine monocyte/macrophage cell line, LPS-stimulated
Sequence (Q05769 18-604): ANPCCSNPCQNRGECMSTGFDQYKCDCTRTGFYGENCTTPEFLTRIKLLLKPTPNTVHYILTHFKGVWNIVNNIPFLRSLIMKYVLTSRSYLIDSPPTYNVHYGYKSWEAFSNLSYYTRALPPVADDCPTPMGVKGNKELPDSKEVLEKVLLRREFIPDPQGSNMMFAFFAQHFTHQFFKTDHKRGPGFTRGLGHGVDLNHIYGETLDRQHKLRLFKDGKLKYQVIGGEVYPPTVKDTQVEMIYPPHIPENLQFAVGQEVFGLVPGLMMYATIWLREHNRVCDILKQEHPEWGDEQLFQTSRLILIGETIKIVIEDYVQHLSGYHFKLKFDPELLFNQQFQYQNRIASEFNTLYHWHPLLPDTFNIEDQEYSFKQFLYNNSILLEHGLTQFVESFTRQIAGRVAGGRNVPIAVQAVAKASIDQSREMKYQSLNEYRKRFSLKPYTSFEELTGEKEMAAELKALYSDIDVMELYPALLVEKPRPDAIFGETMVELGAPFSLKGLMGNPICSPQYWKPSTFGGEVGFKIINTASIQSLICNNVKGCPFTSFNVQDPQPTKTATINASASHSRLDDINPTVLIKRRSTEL
Assay: Assessment of COX-2 activity in LPS-stimulated J774 cells (PGE2 radioimmunoassay)
Assay type: cell-based, murine
Conditions: read-out: in vitro COX-2 inhibitory potency IC50
Protocol: Cells were stimulated for 24 h with E. coli lipopolysaccharide (LPS, 10 μg/mL) to induce COX-2, in the absence or presence of test compounds, at the concentrations previously reported. The supernatants were collected for the measurement of PGE2 by radioimmunoassay. Analysis. […] Results are expressed as the mean, for 3 experiments, of the % inhibition of PGE2 production by test compounds with respect to control samples. […] The IC50 were calculated by GraphPad Instat program (GraphPad software).
Here, each record is paired with measured IC50 data.

{"columns": ["Compound", "Unit spec", "IC50"],
 "data": [
  ["CCOC(=O)Cc1cc(-c2ccc(S(C)(=O)=O)cc2)n(-c2cccc(F)c2)c1C [Compound 4b, reference compound]", "nM", 10],
  ["CCOC(=O)Cc1cc(-c2ccc(S(C)(=O)=O)cc2)n(-c2ccc(F)c(F)c2)c1C [Compound 5b, reference compound]", "nM", 20]
]}
